meta.source: patent US10196390B2

Molecular target: JAK2 (Homo sapiens (Human))
Sequence (O60674 whole entry): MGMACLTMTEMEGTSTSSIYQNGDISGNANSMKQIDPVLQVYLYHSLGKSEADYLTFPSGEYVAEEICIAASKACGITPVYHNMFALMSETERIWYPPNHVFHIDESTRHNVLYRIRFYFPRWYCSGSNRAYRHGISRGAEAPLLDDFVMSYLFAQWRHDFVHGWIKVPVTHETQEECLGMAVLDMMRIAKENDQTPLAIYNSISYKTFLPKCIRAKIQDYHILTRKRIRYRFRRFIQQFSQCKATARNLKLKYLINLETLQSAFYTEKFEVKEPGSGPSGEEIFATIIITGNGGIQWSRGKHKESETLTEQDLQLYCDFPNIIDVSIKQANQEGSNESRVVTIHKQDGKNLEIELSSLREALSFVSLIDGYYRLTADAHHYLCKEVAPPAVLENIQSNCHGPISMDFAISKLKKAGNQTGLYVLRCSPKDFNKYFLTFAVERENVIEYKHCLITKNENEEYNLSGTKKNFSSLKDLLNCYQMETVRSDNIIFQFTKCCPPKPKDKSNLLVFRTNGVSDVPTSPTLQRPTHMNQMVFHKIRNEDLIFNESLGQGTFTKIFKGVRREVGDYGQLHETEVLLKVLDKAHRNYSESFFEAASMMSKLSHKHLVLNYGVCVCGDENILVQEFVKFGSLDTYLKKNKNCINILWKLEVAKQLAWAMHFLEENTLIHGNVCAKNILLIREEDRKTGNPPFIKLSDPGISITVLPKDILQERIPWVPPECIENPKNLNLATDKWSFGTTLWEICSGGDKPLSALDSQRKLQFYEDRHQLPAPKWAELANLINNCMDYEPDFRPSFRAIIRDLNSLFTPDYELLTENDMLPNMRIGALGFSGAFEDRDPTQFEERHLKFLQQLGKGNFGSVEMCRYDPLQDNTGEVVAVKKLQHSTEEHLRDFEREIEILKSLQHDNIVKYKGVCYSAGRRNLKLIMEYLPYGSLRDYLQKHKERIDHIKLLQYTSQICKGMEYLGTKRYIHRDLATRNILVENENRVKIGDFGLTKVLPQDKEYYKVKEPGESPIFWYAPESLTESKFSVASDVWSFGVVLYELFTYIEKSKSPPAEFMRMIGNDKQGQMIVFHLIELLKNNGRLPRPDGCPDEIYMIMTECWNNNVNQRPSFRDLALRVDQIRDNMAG
Assay: JAK2 activity inhibition assay (radioactive kinase assay / Caliper assay)
Assay type: biochemical
Conditions: read-out: JAK2 Ki
readout-label: Ki

Worked cases, answers included:
- molecule: "CCNC(=O)Cc1ccc(Nc2nc(-c3ccccc3Cl)nc3c2C(=O)NC3)cc1"
  subject-of-test: "JAK2 (Homo sapiens (Human))"
  readout-label: "Ki"
  result-value: "100 to 1000 nM"
- molecule: "CN1CCN[C@@](C)(c2ccc(Nc3cc(-c4c(F)cccc4F)nc4c3C(=O)NC4)nc2)C1=O"
  subject-of-test: "JAK2 (Homo sapiens (Human))"
  readout-label: "Ki"
  result-value: "< 10 nM"
- molecule: "O=C1NCc2nc(-c3c(F)cccc3F)nc(Nc3ccc([C@@H]4CCN(CCN5CCOCC5)C4=O)cc3)c21"
  subject-of-test: "JAK2 (Homo sapiens (Human))"
  readout-label: "Ki"
  result-value: "100 to 1000 nM"
- molecule: "CC1(O)CN(c2ccc(Nc3cc(-c4c(F)cccc4F)nc4c3C(=O)NC4)nc2)C1"
  subject-of-test: "JAK2 (Homo sapiens (Human))"
  readout-label: "Ki"
  result-value: "10 to 100 nM"
- molecule: "C[C@@H](O)CNC(=O)Cc1ccc(Nc2nc(-c3c(F)cccc3F)nc3c2C(=O)NC3)cc1"
  subject-of-test: "JAK2 (Homo sapiens (Human))"
  readout-label: "Ki"
  result-value: "100 to 1000 nM"
- molecule: "CC1(c2ccc(Nc3nc(-c4c(F)cccc4F)nc4c3C(=O)NC4)cc2)COC1"
  subject-of-test: "JAK2 (Homo sapiens (Human))"
  readout-label: "Ki"
  result-value: "10 to 100 nM"
- molecule: "CN1CCNC(C)(c2ccc(Nc3nc(-c4c(F)cccc4F)nc4c3C(=O)NC4)cc2)C1=O (centres unmarked)"
  subject-of-test: "JAK2 (Homo sapiens (Human))"
  readout-label: "Ki"
  result-value: "10 to 100 nM"

Attention now turns to another entry.
// lookup Ki | system=JAK2 (Homo sapiens (Human)) | key= CCOC(=O)Cc1ccc(Nc2nc(-c3c(F)cccc3F)nc3c2C(=O)NC3)cc1
100 to 1000 nM
